B1: LINE1-full (parent)
chain: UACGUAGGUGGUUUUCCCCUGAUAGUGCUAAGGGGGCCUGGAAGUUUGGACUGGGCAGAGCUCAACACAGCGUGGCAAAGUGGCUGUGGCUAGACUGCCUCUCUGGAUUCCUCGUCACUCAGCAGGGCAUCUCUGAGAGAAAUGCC

# Variants of: B1
# assay procedure: self-cleavage, relative activity (ratio to wild type); higher = more cleavage; in vitro, sequencing; the parent is a self-cleaving ribozyme
If the reported self-cleavage equals or exceeds 1, assign yes (1). If not, assign no (0).

{"columns": ["sequence chain", "label value"],
 "data": [
  ["UACGUAGGCGGUUUUCCCCUGAUAGUGCUAAGGGGGCCUGGAAGUUUGGACUGGGCAGAGCUCAACACAGCGUGGCAAAGUGGCUGUGGCUAGACUGCCUCUCUGGAUUCCUCGUCAUUCAGCAGGGCAUCUCUGAGAGAAAUGCC", "no (0)"],
  ["UACGUAGGUGGUUUUCCCCUGAUAGUGCUAAAGGGGCCUGGAAGUUUGGACUGGGCAGAGCUCAACACAGCGUGGCAAAGUGGCUGUGGCUAGACUGCCUCUCUGGAUUCCUCGUCACUCAGCAGGGCAUCCCUGAGAGAAAUGCC", "yes (1)"],
  ["UACGUAGGUGGUUUUCCCCUGAUAGUGCUAAGGGGGCCUGGAAGUUUGGACUGGGCUGAGCUCAACACAGCGUGGCAAAGUGGCUGUGGCAAGACUGCCUCUCUGGAUUCCUCGUCACUCAGCAGGGCAUCUCUGAGAGAAAUGCC", "no (0)"],
  ["UACGUAGGUGGUUUUCCCCUGAUAGUGCUAAGGGGGCCUGGAAGUGUGGACUGGGCAGAGCUCAACACAGCGUGGCAAAGUGGCUGUGGCUAGACUGCCUCUCUGGAUUCCUCGUCACUCAGCAGGGCAUCUCUGAGAGAAAUGCC", "yes (1)"],
  ["UACGUAGGUGGUUUUCCCCUGAUAGUGCUAAGGGGGCCUGGAAGGUUGGACUGGGCAGAGCUCAACACAGCGUGGCAAAGUGGCUGUGGCUAGACUGCCUCUCUGGAUUCCUCGUCACUCAGCAGGGCACCUCUGAGAGAAAUGCC", "yes (1)"],
  ["UACGUAGGUGGUUUUCCCCUGAUAGUGCUAAGGGGGCCUGGAAGUUUGGACUGGGCAGAGCUCAACACAGCGUGGCAAAGUGGCUGUGGCUAGACUGCCUCUCUGGAUUCCUCGUCGCUCAGUAGGGCAUCUCUGAGAGAAAUGCC", "yes (1)"],
  ["UACGUAGGUGGUUUUCCCCUGAUAGUGCUAAGGGGGCCUGGAAGUUUGGACUGGGCAGAGCUCAACACUGCGUGGCAAAGUGGCUGUGGCAAGACUGCCUCUCUGGAUUCCUCGUCACUCAGCAGGGCAUCUCUGAGAGAAAUGCC", "no (0)"],
  ["UACGUAGGUGGUUUUCCCCUGAUAGUGCUAAGGGGGCCUGGAAGUUUGGACGGGGCAGAGCUCAACACAGCGUGGCAAAGUGGCUGUGGCUAGACUGCCACUCUGGAUUCCUCGUCACUCAGCAGGGCAUCUCUGAGAGAAAUGCC", "no (0)"],
  ["AACGUAGGUGGGUUUCCCCUGAUAGUGCUAAGGGGGCCUGGAAGUUUGGACUGGGCAGAGCUCAACACAGCGUGGCAAAGUGGCUGUGGCUAGACUGCCUCUCUGGAUUCCUCGUCACUCAGCAGGGCAUCUCUGAGAGAAAUGCC", "no (0)"],
  ["UACGUAGGUGGAUUUCCCCUGAUAGUGCUAAGGGGGCCUGGAAGUUUGGACUGGGCAGAGCUCAAUACAGCGUGGCAAAGUGGCUGUGGCUAGACUGCCUCUCUGGAUUCCUCGUCACUCAGCAGGGCAUCUCUGAGAGAAAUGCC", "no (0)"],
  ["UACGUAGGUGGAUUUCCCCUGAUAGUGCUAAGGGGGCCUGGAAGUUUGGACUGGGCAGAGCUCAACACAGCGUGGCAAAGUGGCCGUGGCUAGACUGCCUCUCUGGAUUCCUCGUCACUCAGCAGGGCAUCUCUGAGAGAAAUGCC", "no (0)"],
  ["UACGUAGGUGGUUUUCCCCUGAUAGUGCUAAGGGGGACUGGAAGUUUGGACUGGGCAGAGCUCAACACAGCGUGGCAAAGUGGCUGUGGCUAGACUGCCUCUCUGGAUUCCUCGUCACUCAGCAGGGCAUCUCUGAGAGAAGUGCC", "yes (1)"],
  ["UACGUAGGUGGCUUUCCCCUGAUAGUGCUAAGGGGGCCUGGAAGUUUGGACUGGGCAGAGCUCAACACAGCGUGGCAAAGUGGCUGUGGCUAGACUGCCUCUCUGGAUUCCUCGUCACUCAGCAGGGCAUCACUGAGAGAAAUGCC", "yes (1)"],
  ["UACGUAGGUGGUUUUCCCCUGAUAGUGCUAAGGGGGCCUGGAAGUUUGGACUGGGCAGAGCUCAACACGGCGUGGUAAAGUGGCUGUGGCUAGACUGCCUCUCUGGAUUCCUCGUCACUCAGCAGGGCAUCUCUGAGAGAAAUGCC", "no (0)"],
  ["UACGUAGGUGGUUUUCCCCUGAUAGUGCUAAGGGGGCCAGGAAGUUUGGACUGGGCAGAGCUCAACACAGCGUGGCAAAGUGGCUGUGGCUAGACUGCCUCUCUGGAUUCCUCGACACUCAGCAGGGCAUCUCUGAGAGAAAUGCC", "yes (1)"],
  ["UACGUAGGUGGUUUUCCCCUGAUAGUGCUAAGGGGGCCUGGAAGUUUGGACUGGGCAGAGCUCAACACAGCGUGGCAAAGUGGCUGUGGCUAGACUGCCUCUCUGGAUUCCUCGUCACCCAGCAGUGCAUCUCUGAGAGAAAUGCC", "yes (1)"],
  ["UACGUAGGUGGUUUUCCCCUGAUAGUGCUAAGGGGGCCUGGAAGUUUGGACUGGGCAGAGCUCAACACAGCGUGGCAAAGUGGCUGUGGCUAGACUGCCUCUCUGGAAUCCUCGUCACUCAGCAGGGCACCUCUGAGAGAAAUGCC", "yes (1)"],
  ["UACGUAGGUGGUUUUCCCCUGAUAGUGCUAAGGGGGCCUGGAGGUUUGGACUGGGCAGAGCUCAACACAGCGUGGCAAAGUGGCUGUGGCUAGACUGCCUCACUGGAUUCCUCGUCACUCAGCAGGGCAUCUCUGAGAGAAAUGCC", "no (0)"],
  ["UACGAAGGUGGUUUUCCCCUGAUAGUGCAAAGGGGGCCUGGAAGUUUGGACUGGGCAGAGCUCAACACAGCGUGGCAAAGUGGCUGUGGCUAGACUGCCUCUCUGGAUUCCUCGUCACUCAGCAGGGCAUCUCUGAGAGAAAUGCC", "yes (1)"],
  ["UACGUAGGUGGUUUUCCCCUGAUAGUGCUAAGGGGGCCUGGAAGUUUGGACUGGGCAGAGCUCAACACAGCGUGGCUAAGUGGCUGUGGCUAGACUGCCUCUCUGGAUUCCUCGUCACUCAGCAGGGCAUCUCUGAGGGAAAUGCC", "yes (1)"],
  ["UACGUAGGUGGUUUUCCCCUGAUAGUGCUAAGGGGGCCUGGAAGUUUGGACUGGGCAGAGCUCAUCACAGUGUGGCAAAGUGGCUGUGGCUAGACUGCCUCUCUGGAUUCCUCGUCACUCAGCAGGGCAUCUCUGAGAGAAAUGCC", "no (0)"],
  ["UACGUAGGUGGUUUUCCCCUGAUAGUGCUAAGGGGGCCUGGAAGUUUGGACUGGGCAGAGCUCAACACAGCGUGGCAAAGUGGCUGAGGCUAGACUGCCUCUCUGGAUUCCUCGUCACUCAGCAGGGCAUCUCUGGGAGAAAUGCC", "no (0)"],
  ["UACGUAGGUGGUUUUCCCCUGAUAAUGCUAAGGGGGCCUGGAAGUUUGGACUGGGCAGAGCUCGACACAGCGUGGCAAAGUGGCUGUGGCUAGACUGCCUCUCUGGAUUCCUCGUCACUCAGCAGGGCAUCUCUGAGAGAAAUGCC", "no (0)"]
]}
